- targetSystem: aggregated recombinant human-microtubule associated protein Tau (Homo sapiens, UniProt P10636)
- Construct: Recombinant human-microtubule associated protein Tau purified from E. coli is aggregated at a concentration of 5 μM with Arachidonic Acid (100 μM) in Tris 10 mM pH8, 24 h at 37° C
- Sequence (P10636 whole entry): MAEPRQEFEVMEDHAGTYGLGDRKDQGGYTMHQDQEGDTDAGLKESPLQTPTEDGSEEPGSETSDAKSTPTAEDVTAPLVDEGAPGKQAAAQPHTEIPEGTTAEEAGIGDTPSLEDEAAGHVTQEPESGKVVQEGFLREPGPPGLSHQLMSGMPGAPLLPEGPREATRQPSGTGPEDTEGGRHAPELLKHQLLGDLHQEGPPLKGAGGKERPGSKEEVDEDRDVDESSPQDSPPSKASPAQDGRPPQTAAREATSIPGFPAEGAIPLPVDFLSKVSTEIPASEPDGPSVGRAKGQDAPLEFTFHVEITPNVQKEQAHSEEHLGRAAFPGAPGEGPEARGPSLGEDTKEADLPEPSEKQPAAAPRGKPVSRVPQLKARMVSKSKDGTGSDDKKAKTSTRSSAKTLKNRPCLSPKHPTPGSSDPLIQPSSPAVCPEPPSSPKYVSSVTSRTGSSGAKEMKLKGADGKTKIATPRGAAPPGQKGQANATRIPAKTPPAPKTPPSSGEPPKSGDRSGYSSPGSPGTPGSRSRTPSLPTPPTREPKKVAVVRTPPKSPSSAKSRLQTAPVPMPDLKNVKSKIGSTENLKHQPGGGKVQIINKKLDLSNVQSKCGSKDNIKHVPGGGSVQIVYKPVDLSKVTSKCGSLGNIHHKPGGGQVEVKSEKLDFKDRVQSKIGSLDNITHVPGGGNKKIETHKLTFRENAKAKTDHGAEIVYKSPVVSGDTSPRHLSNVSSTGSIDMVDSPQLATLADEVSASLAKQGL
- measurementDescription: Thiazin-red R displacement fluorescence assay on aggregated Tau
- testConditions: displacement of Thiazin-red R from aggregated Tau; compound 0.3 nM to 10000 nM; 30 min room temperature; Ex 531 nm/Em 595 nm
Lab note: anything with IC50 below 0.01 µM is marked 1 (yes); values at 0.01 µM or higher are marked 0 (no).

## Task Determine if COc1cc(/C=c2\sc3nc(-c4ccc(Cl)cc4)cn3c2=O)cc(Br)c1O shows IC50 strictly lower than 0.01 µM.
## Result 1 (yes)

## Task Same read-out for COc1cc(/C=c2\sc3nc(-c4ccc(C(=O)OCCF)cc4)cn3c2=O)cc(Cl)c1O ?
## Result 1 (yes)

## Task Check COc1cc(/C=c2\sc3nc(-c4cccc(C#N)c4)cn3c2=O)cc(Br)c1O too.
## Result 0 (no)

## Task Further, for COc1cc(/C=c2\sc3nc(-c4cccc(C(F)(F)F)c4)cn3c2=O)cc(F)c1O ?
## Result 0 (no)

## Task Next: COc1cc(/C=c2\sc3nc(-c4cccc(OC(F)(F)F)c4)cn3c2=O)cc(F)c1O
## Result 0 (no)

## Task What do you have for CCCNC(=O)c1ccc(-c2cn3c(=O)/c(=C/c4cc(Cl)c(O)c(OC)c4)sc3n2)cc1 ?
## Result 1 (yes)

## Task Further, for COc1cc(/C=c2\sc3nc(-c4cccc(CCl)c4)cn3c2=O)cc(Cl)c1O ?
## Result 1 (yes)

## Task How about this compound: CCN(CC)c1ccc(-c2cn3c(=O)/c(=C/c4cc(Cl)c(O)c(OC)c4)sc3n2)cc1
## Result 0 (no)

## Task Same again, this time with COc1cc(/C=c2\sc3nc(-c4cccnc4)cn3c2=O)cc(Cl)c1O
## Result 0 (no)

## Task Now consider COc1cc(/C=c2\sc3nc(-c4cc(C)nc(C)c4)cn3c2=O)cc(Cl)c1O and answer again.
## Result 0 (no)

## Task COc1cc(/C=c2\sc3nc(-c4cccc(Cl)c4)cn3c2=O)cc(F)c1O , same question.
## Result 0 (no)

## Task Same read-out for CCCOc1cc(/C=c2\sc3nc(-c4cccs4)cn3c2=O)cc(Cl)c1O ?
## Result 0 (no)

## Task Lookup COc1cc(/C=c2\sc3nc(-c4ccc(C(=O)O)cc4)cn3c2=O)cc(F)c1O
## Result 0 (no)

## Task Also, CCc1cc(/C=c2\sc3nc(-c4cccc(OC(F)(F)F)c4)cn3c2=O)cc(OC)c1O please.
## Result 0 (no)

## Task Here is the next compound: COc1cc(/C=c2\sc3nc(-c4ccccc4OCCOCCOCCF)cn3c2=O)cc(Cl)c1O
## Result 0 (no)

## Task Now this one: COc1cc(/C=c2\sc3nc(-c4cccc(C)c4)cn3c2=O)cc(OC)c1O
## Result 1 (yes)

## Task Same thing, different compound: COc1cc(/C=c2\sc3nc(-c4ccccc4C)cn3c2=O)cc(Cl)c1O
## Result 0 (no)

## Task Thanks! And COc1cc(/C=c2\sc3nc(-c4ccc(C(=O)NCCF)cc4)cn3c2=O)cc(Cl)c1O ?
## Result 1 (yes)

## Task Proceed to COc1cc(/C=c2\sc3nc(-c4ccccc4F)cn3c2=O)cc(Cl)c1O
## Result 0 (no)

## Task Same again, this time with COc1cc(/C=c2\sc3nc(-c4ccc(Cl)cc4)cn3c2=O)cc(OCCF)c1O
## Result 1 (yes)

## Task # repeat for Cc1cc(-c2cn3c(=O)/c(=C/c4cc(Cl)c(O)c(OCCCF)c4)sc3n2)cc(C)n1
## Result 0 (no)
